test system: Escherichia coli TOP10; experiment: shrunken log2 fold change of peptide-encoding DNA abundance (4.5 h post-induction vs induction); higher = less antimicrobial activity (less host growth inhibition); settings: time post-induction: 4.5 h; library: site-saturation at positions 5, 18, 19, 20
Bucketed by reported shrunken log2 fold change, buckets being lower segment: < -0.05; middle segment: ≥ -0.05 and < 0.1; upper segment: ≥ 0.1

Some solved entries appear below for comparison.
>>> assigned_class("RRIRERPPRLPRPRPRPVPTPRP")
"upper segment"
>>> assigned_class("RRIRRRPPRLPRPRPRPDNAPRP")
"lower segment"
>>> assigned_class("RRIRNRPPRLPRPRPRPFADPRP")
"middle segment"

Query block: Kindly identify the class of RRIRWRPPRLPRPRPRPDWDPRP .
Result block: upper segment

Query block: Kindly identify the class of RRIRMRPPRLPRPRPRPAIQPRP .
Result block: middle segment

Query block: Kindly identify the class of RRIRFRPPRLPRPRPRPDPSPRP .
Result block: lower segment

Query block: Kindly identify the class of RRIRSRPPRLPRPRPRPQFKPRP .
Result block: lower segment

Query block: Kindly identify the class of RRIRMRPPRLPRPRPRPHIEPRP .
Result block: middle segment

Query block: Kindly identify the class of RRIRYRPPRLPRPRPRPEAAPRP .
Result block: upper segment

Query block: Kindly identify the class of RRIRFRPPRLPRPRPRPSPDPRP .
Result block: middle segment

Query block: Kindly identify the class of RRIRIRPPRLPRPRPRPHHMPRP .
Result block: lower segment

Query block: Kindly identify the class of RRIRRRPPRLPRPRPRPHQSPRP .
Result block: upper segment

Query block: Kindly identify the class of RRIRCRPPRLPRPRPRPRAHPRP .
Result block: upper segment

* * *

tested on: Escherichia coli TOP10; test: shrunken log2 fold change of peptide-encoding DNA abundance (4.5 h post-induction vs induction); higher = less antimicrobial activity (less host growth inhibition); settings: time post-induction: 4.5 h; library: site-saturation at positions 5, 18, 19, 20
Could you label it label 1 if measured shrunken log2 fold change is 0.004 or higher, and label 0 otherwise?

Some solved entries appear below for comparison.
>>> assigned_class("RRIRMRPPRLPRPRPRPAINPRP")
"label 1"
>>> assigned_class("RRIRVRPPRLPRPRPRPGYQPRP")
"label 0"
>>> assigned_class("RRIRIRPPRLPRPRPRPHQIPRP")
"label 0"
>>> assigned_class("RRIRQRPPRLPRPRPRPSEMPRP")
"label 1"

Query block: Please indicate if the recorded shrunken log2 fold change for RRIRARPPRLPRPRPRPTPTPRP meets or exceeds 0.004.
Result block: label 1

Query block: Please indicate if the recorded shrunken log2 fold change for RRIRNRPPRLPRPRPRPMIFPRP meets or exceeds 0.004.
Result block: label 0

Query block: Please indicate if the recorded shrunken log2 fold change for RRIRYRPPRLPRPRPRPVCQPRP meets or exceeds 0.004.
Result block: label 0

Query block: Please indicate if the recorded shrunken log2 fold change for RRIRLRPPRLPRPRPRPMDDPRP meets or exceeds 0.004.
Result block: label 0

Query block: Please indicate if the recorded shrunken log2 fold change for RRIRSRPPRLPRPRPRPGWMPRP meets or exceeds 0.004.
Result block: label 0

* * *

system: Escherichia coli TOP10; test: shrunken log2 fold change of peptide-encoding DNA abundance (4.5 h post-induction vs induction); higher = less antimicrobial activity (less host growth inhibition); settings: time post-induction: 4.5 h; library: site-saturation at positions 5, 18, 19, 20;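 note: peptides expressed intracellularly from a pBAD plasmid library in pooled LB shake-flask culture, induced with 0.3% L-arabinose, DNA abundance read by NGS, three biological replicates, DESeq2 with apeglm shrinkage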
Could you label it Criterion met if measured shrunken log2 fold change is 0.03 or higher, and Criterion not met otherwise?

Some solved entries appear below for comparison.
>>> assigned_class("RRIRARPPRLPRPRPRPVNQPRP")
"Criterion not met"
>>> assigned_class("RRIRTRPPRLPRPRPRPGLNPRP")
"Criterion not met"
>>> assigned_class("RRIRCRPPRLPRPRPRPRTQPRP")
"Criterion met"

Query block: Please indicate if the recorded shrunken log2 fold change for RRIRPRPPRLPRPRPRPIWFPRP meets or exceeds 0.03.
Result block: Criterion not met

Query block: Please indicate if the recorded shrunken log2 fold change for RRIRLRPPRLPRPRPRPNHVPRP meets or exceeds 0.03.
Result block: Criterion not met
